test system: MALME-3M melanoma; assay: NCI tumour cell line growth inhibition, 48 h; in the data active means GI50 below about 0.43 µM; inactive means the rest
Outcomes: active, inactive

Compound	Tested on	Label value
COCO[C@@H]1CC2C=Nc3cc(OCc4ccccc4)c(OC)cc3C(=O)N2C1 (stereo partly specified)	MALME-3M melanoma	active
O=C1C(Cl)=C(Nc2ccccn2)C(=O)c2ccccc21	MALME-3M melanoma	inactive
C/C=C1\C[C@@H]2C(OC)Nc3cc(O)c(OC)cc3C(=O)N2C1 (stereo partly specified)	MALME-3M melanoma	active
CNc1ccc(C(=O)CC(O)CCC(C)C2OC(=O)CC(O)CC(=O)CC(O)CC(O)CC(O)CC(O)CC3(O)CC(O)C(C(=O)NCCc4ccccn4)C(CC(OC4OC(C)C(O)C(N)C4O)/C=C/C=C/C=C/C=C\C=C/C=C/C=C/C2C)O3)cc1 (stereo unspecified)	MALME-3M melanoma	active
O=C1CCCC(=O)C1C(=O)c1ccc(C(F)(F)F)cc1[N+](=O)[O-]	MALME-3M melanoma	inactive
O=C(Nc1cccc(-n2cc(-c3ccncc3)c(-c3ccc(O)c(Cl)c3)n2)c1)c1ccc(N2CCOCC2)c(C(F)(F)F)c1	MALME-3M melanoma	inactive
CC(=O)OC1CC(C)c2c(Cl)ncnc21 (stereo unspecified)	MALME-3M melanoma	inactive
Cc1[nH]c2ccccc2c1C1=CC(=O)C=CC1=O	MALME-3M melanoma	inactive
CCCCC/C=C\C/C=C/CCCCCCCCNC(=O)Nc1ccc([N+](=O)[O-])cc1	MALME-3M melanoma	inactive
O=C(Nc1ccc(O)c(NS(=O)(=O)c2ccc(F)cc2)c1)c1ccc(-c2ccccc2)cc1	MALME-3M melanoma	inactive
CCCN(CCC)c1ccc(/C=N/NC(=O)c2cccnc2)cc1	MALME-3M melanoma	inactive
c1ccc(C2=NN[C@H](c3cn(-c4ccccc4)nc3-c3ccccc3)C2)cc1	MALME-3M melanoma	inactive
C=CCCC(O)c1ccc(CCCCCCCCCCC)o1 (stereo unspecified)	MALME-3M melanoma	inactive
N#C/C(=C\c1ccc([N+](=O)[O-])s1)c1nc2cc(Br)ccc2s1	MALME-3M melanoma	active
O=C(OC(CNc1c(C(=O)c2ccccc2)c(=O)n(Cc2ccccc2)c(=O)n1Cc1ccccc1)CN1CCCCC1)c1ccccc1 (stereo unspecified)	MALME-3M melanoma	inactive
CNC(=O)c1c(NC(=O)c2ccc(C(C)C)cc2)sc2c1CCC(=O)C2	MALME-3M melanoma	inactive
